target: ZFAND5 (UniProt O76080); experiment: log2 fold change, soluble protein after heating vs DMSO (PISA); higher = thermal stabilisation; K562 cells, 10 uM, 30 min; active = over 0.2 and 3.5 SD of the protein, either way, in both replicates (recomputed)
Sequence (O76080 whole entry, looked up): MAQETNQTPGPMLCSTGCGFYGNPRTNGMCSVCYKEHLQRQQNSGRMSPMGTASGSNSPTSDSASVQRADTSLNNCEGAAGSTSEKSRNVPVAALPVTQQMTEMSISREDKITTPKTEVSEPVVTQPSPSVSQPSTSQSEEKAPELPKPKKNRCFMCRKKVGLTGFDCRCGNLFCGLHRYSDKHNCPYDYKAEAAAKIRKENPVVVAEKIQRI
The full data set covers some 7,900 targets. This sample favours those with a hit. About 0.6% of all pairs of compound and target were hits.
READOUT_LABEL: log2 fold change
Give bare numbers.

Example results:
1) O=C(CCCCCCC(=O)Nc1ccccc1)NO -0.047
2) CCCS(=O)(=O)Nc1ccc(F)c(C(=O)c2c[nH]c3ncc(Cl)cc23)c1F -0.058
3) Cc1cccc(CC(=O)N2CCc3c2ccc(-c2cn(C)c4ncnc(N)c24)c3F)n1 -0.032
4) NC(=O)c1cnc(N[C@@H]2CCCC[C@@H]2N)nc1Nc1cccc(-n2nccn2)c1 0.084
5) COc1cc(C(=O)O)ccc1NC(=O)[C@@H]1N[C@@H](CC(C)(C)C)[C@](C#N)(c2ccc(Cl)cc2F)[C@H]1c1cccc(Cl)c1F 0.079
6) Cn1cncc1[C@@](N)(c1ccc(Cl)cc1)c1ccc2c(c1)c(-c1cccc(Cl)c1)cc(=O)n2C 0.031

For every record below, what is its log2 fold change?
1. Cn1cc(-c2ccc3nnc(C(F)(F)c4ccc5ncccc5c4)n3n2)cn1
2. O=C1NC(=O)/C(=C\c2ccc3nccnc3c2)S1
3. C[C@H](Nc1ncnc2nc[nH]c12)c1cc2cccc(Cl)c2c(=O)n1-c1ccccc1
4. O=C(CCCCCCNC(=O)c1cnc(N(c2ccccc2)c2ccccc2Cl)nc1)NO
5. Cc1cc(SCc2sc(-c3ccc(C(F)(F)F)cc3)nc2C)ccc1OCC(=O)O
6. O=C1c2ccccc2-c2n[nH]c3cccc1c23
7. CC(C)(O)CC(=O)NCCn1ccc2ncnc(Nc3ccc(Oc4cccc(C(F)(F)F)c4)c(Cl)c3)c21
8. CCCc1cc(C)[nH]c(=O)c1CNC(=O)c1cc(-c2ccnc(N3CCN(C)CC3)c2)cc2c1cnn2C(C)C

1. -0.036
2. -0.017
3. -0.063
4. 0
5. -0.079
6. -0.055
7. -0.019
8. -0.038

For every record below, what is its log2 fold change?
1. Cc1ccc(Sc2cncc3sc(C(N)=O)cc23)cc1
2. COC(=O)N[C@@H](C)CNc1nccc(-c2cn(C(C)C)nc2-c2cc(Cl)cc(NS(C)(=O)=O)c2F)n1

[-0.047, -0.047]

For every record below, what is its log2 fold change?
1. CCN(CC)Cc1ccc2cc(COC(=O)Nc3ccc(C(=O)NO)cc3)ccc2c1
2. CC(C)N(C[C@H]1O[C@@H](n2cnc3c(N)ncnc32)[C@H](O)[C@@H]1O)[C@H]1C[C@@H](CCc2nc3cc(C(C)(C)C)ccc3[nH]2)C1

-0.016
-0.047

###

target: YWHAZ (UniProt E7ESK7); experiment: log2 fold change, soluble protein after heating vs DMSO (PISA); higher = thermal stabilisation; K562 cells, 10 uM, 30 min; active = over 0.2 and 3.5 SD of the protein, either way, in both replicates (recomputed)
The full data set covers some 7,900 targets. This sample favours those with a hit. About 0.6% of all pairs of compound and target were hits.
READOUT_LABEL: log2 fold change
Give bare numbers.

COMPOUND	TARGET_UNDER_TEST	READOUT_LABEL	NUMERIC_RESULT
COc1cccc2cc(-c3nc([C@H]4CC[C@H](C(=O)O)CC4)n4ncnc(N)c34)[nH]c12	YWHAZ (UniProt E7ESK7)	log2 fold change	0.187

For every record below, what is its log2 fold change?
1. C[C@@H](N)c1ccc(C(=O)Nc2ccnc3[nH]ccc23)cc1
2. CS(=O)(=O)CCNCc1ccc(-c2ccc3ncnc(Nc4ccc(OCc5cccc(F)c5)c(Cl)c4)c3c2)o1 [lapatinib]
3. CCCc1cc(C)[nH]c(=O)c1CNC(=O)c1cc(-c2ccnc(N3CCN(C)CC3)c2)cc2c1cnn2C(C)C
4. O=C1NC(=NCc2cccs2)S/C1=C\c1ccc2ncccc2c1
5. C=CC(=O)N1CCC[C@@H](n2nc(-c3ccc(Oc4ccccc4)cc3)c3c(N)ncnc32)C1 [ibrutinib]
6. Cn1c2cc(S(C)=O)sc2c2cnn(Cc3cccc(N)c3)c(=O)c21 (centres undefined)

[0.179, -0.051, -0.393, -0.13, -0.167, 0.101]

For every record below, what is its log2 fold change?
1. O=C(Nc1cccc(Nc2ncc(Br)c(NCCc3cnc[nH]3)n2)c1)N1CCCC1
2. Cc1ccc(NC(=O)c2cccc(N(C)C)c2)cc1NC(=O)c1ccc(O)cc1

-0.031
0.082

###

molecular target: ZFP91 (UniProt Q96JP5); assay: log2 fold change, soluble protein after heating vs DMSO (PISA); higher = thermal stabilisation; K562 cells, 10 uM, 30 min; active = over 0.2 and 3.5 SD of the protein, either way, in both replicates (recomputed)
Sequence (Q96JP5 whole entry, looked up): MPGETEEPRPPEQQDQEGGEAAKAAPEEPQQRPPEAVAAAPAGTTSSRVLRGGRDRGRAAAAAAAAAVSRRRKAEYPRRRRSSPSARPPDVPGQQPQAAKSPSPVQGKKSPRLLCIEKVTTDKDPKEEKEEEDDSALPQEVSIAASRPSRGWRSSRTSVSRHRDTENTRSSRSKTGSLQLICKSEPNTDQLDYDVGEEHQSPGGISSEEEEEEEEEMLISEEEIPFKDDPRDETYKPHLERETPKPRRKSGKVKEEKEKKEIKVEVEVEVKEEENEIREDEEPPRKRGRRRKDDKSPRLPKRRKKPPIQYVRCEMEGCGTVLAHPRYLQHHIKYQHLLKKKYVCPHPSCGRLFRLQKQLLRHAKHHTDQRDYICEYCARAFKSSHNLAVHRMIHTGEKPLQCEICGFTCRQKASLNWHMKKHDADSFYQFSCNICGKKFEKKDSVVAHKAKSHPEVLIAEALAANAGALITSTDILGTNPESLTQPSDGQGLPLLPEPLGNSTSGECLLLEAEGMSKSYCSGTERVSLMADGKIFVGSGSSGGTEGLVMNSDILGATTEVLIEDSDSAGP
About 7,900 targets were measured; listed, in parts, are those with a hit and a random draw of the rest. About 0.6% of all pairs of compound and target were hits.
READOUT_LABEL: log2 fold change
Numbers only.

Example results:
1. COc1cc2nc(-c3cc(F)ccc3O)nc(N[C@@H]3CNC[C@H]3C(C)(C)O)c2cc1OC -0.095
2. C#Cc1cccc(Nc2ncnc3cc(OCCOC)c(OCCOC)cc23)c1 -0.004
3. CCN(CC)Cc1ccc2cc(COC(=O)Nc3ccc(C(=O)NO)cc3)ccc2c1 0.009

For every record below, what is its log2 fold change?
1. Cc1nc(Nc2ncc(C(=O)Nc3c(C)cccc3Cl)s2)cc(N2CCN(CCO)CC2)n1
2. CON(C)C(=O)N1N=C(c2cc(F)ccc2F)S[C@@]1(CCCN)c1ccccc1
3. COc1ccc(Cn2ccc3ccc(C(=O)NO)cc32)cc1
4. O=C1NC(=O)/C(=C\c2ccc3nccnc3c2)S1
5. CN1CC[C@H](c2c(O)cc(O)c3c(=O)cc(-c4ccccc4Cl)oc23)[C@H](O)C1
6. c1cn2cc(-c3ccc4cn[nH]c4c3)nc(Nc3ccc(N4CCOCC4)cc3)c2n1

0.009
0.183
-0.076
0.051
0.108
0.011

###

target: YY1 (UniProt P25490); assay: log2 fold change, soluble protein after heating vs DMSO (PISA); higher = thermal stabilisation; K562 cells, 10 uM, 30 min; active = over 0.2 and 3.5 SD of the protein, either way, in both replicates (recomputed)
Sequence (P25490 whole entry, looked up): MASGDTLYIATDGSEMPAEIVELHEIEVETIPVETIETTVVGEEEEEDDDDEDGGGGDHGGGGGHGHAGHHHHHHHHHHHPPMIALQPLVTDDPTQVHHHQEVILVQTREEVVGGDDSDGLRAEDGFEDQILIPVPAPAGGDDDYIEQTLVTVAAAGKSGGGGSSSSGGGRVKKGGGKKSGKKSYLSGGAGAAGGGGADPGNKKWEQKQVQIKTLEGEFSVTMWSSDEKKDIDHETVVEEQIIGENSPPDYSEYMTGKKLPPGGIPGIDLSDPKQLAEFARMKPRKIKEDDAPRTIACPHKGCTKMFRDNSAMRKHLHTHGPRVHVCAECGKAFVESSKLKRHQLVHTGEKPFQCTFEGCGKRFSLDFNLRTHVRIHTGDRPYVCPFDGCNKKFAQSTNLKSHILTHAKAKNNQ
Of roughly 7,900 targets only a part is listed; those with a hit were picked by preference. About 0.6% of all pairs of compound and target were hits.
Binary classification by log2 fold change, with -0.01 as an inclusive lower bound for Condition met; all other cases are Condition not met.

COMPOUND	LABEL_CLASS
Cc1cc(SCc2sc(-c3ccc(C(F)(F)F)cc3)nc2C)ccc1OCC(=O)O	Condition met
O=C(CCCCCCNC(=O)c1cnc(N(c2ccccc2)c2ccccc2Cl)nc1)NO [citarinostat]	Condition met
C[C@H](Nc1ncnc2nc[nH]c12)c1cc2cccc(Cl)c2c(=O)n1-c1ccccc1 [duvelisib]	Condition met

API: above_or_equal(metric=log2 fold change, cutoff=-0.01) for item `Cn1cc(-c2ccc3nnc(C(F)(F)c4ccc5ncccc5c4)n3n2)cn1`
Condition not met

API: above_or_equal(metric=log2 fold change, cutoff=-0.01) for item `Cc1nc(Nc2n[nH]c3c2CN(C(=O)N[C@H](CN(C)C)c2ccccc2)C3(C)C)c2sccc2n1`
Condition not met

API: above_or_equal(metric=log2 fold change, cutoff=-0.01) for item `NC1(c2ccc(-c3nc4ccn5c(=O)[nH]nc5c4cc3-c3ccccc3)cc2)CCC1`
Condition met

###

Give log2 fold change for every item shown.
target: ZDHHC8 isoform 3 (UniProt Q9ULC8); assay: log2 fold change, soluble protein after heating vs DMSO (PISA); higher = thermal stabilisation; K562 cells, 10 uM, 30 min; active = over 0.2 and 3.5 SD of the protein, either way, in both replicates (recomputed)
Sequence (Q9ULC8 whole entry, looked up, canonical isoform): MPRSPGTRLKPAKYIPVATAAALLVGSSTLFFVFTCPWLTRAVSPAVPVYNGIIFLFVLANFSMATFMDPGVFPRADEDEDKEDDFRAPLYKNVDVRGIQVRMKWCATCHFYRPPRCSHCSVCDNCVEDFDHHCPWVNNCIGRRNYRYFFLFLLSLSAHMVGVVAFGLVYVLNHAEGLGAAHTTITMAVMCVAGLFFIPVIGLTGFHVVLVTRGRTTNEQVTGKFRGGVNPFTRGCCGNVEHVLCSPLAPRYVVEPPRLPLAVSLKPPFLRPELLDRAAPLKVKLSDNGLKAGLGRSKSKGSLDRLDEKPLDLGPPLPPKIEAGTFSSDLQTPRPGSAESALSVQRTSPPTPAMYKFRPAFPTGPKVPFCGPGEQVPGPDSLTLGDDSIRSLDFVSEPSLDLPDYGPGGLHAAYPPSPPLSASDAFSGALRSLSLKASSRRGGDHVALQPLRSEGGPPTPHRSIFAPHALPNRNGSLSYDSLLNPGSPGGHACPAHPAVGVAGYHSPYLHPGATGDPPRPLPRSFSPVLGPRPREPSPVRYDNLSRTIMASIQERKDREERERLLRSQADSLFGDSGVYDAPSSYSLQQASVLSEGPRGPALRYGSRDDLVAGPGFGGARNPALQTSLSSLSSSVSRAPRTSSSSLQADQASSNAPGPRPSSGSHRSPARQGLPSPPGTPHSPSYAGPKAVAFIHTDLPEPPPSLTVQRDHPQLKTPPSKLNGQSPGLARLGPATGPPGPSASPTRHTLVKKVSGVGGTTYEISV
Targets with a hit are over-represented here; the source holds about 7,900 in all. About 0.6% of all pairs of compound and target were hits.
One number for each entry.

For every record below, what is its log2 fold change?
1. Cc1ccc(NC(=O)c2ccc(CN3CC[C@H](N(C)C)C3)c(C(F)(F)F)c2)cc1Nc1nccc(-c2cncnc2)n1
2. Cc1cc(Nc2cc(N3CCN(C)CC3)nc(Sc3ccc(NC(=O)C4CC4)cc3)n2)n[nH]1
3. CC[C@H](C)[C@H](NC(=O)[C@H]([C@@H](C)CC)N(C)C(C)=O)C(=O)N[C@H](C(=O)N[C@@H](CC(C)C)C(=O)[C@@]1(C)CO1)[C@@H](C)O
4. CN(CCOc1ccc(C[C@@H]2SC(=O)NC2=O)cc1)c1ccccn1 (racemic)
5. COc1cc2ncnc(Nc3ccc(F)c(Cl)c3)c2cc1OCCCN1CCOCC1

1. -0.03
2. -0.041
3. -0.037
4. 0.038
5. 0.023

For every record below, what is its log2 fold change?
1. CN1CCN(CCOc2cc(OC3CCOCC3)c3c(Nc4c(Cl)ccc5c4OCO5)ncnc3c2)CC1
2. Cc1cccc(-c2[nH]c(C(C)(C)C)nc2-c2ccc3nccnc3c2)n1

1: 0.188; 2: -0.03
